# System: MS2 coat protein
# test-description: apparent KD of MS2 coat protein; designed switch direction (-1 OFF switch, 1 ON switch): -1; higher = weaker reporter binding
# measurement-context: input ligand: none
Each entry below lists one item and its recorded apparent KD of MS2 coat protein value.
Give just the number in nM; leave the unit off.

Consider the worked cases shown below.
biosequence="UCUCGAAGGCAAGGAUAUCCUACAUUGUUCUGGCCCGGGCAUGCUACAUGAGGAUCACCCAUGUGGGAGAAGGUGCGCCACUGC [Design 28] (Eterna round: R96, puzzle: Exclusion NG 2)" subject_of_test="MS2 coat protein" measurement_units=nM result=72
biosequence="GCGCACCUACCAAAAGGUAGGUCAACAUGAGGAUCACCCAUGUAGGAUAUCGAUUGCUUUGCAGUCGAGAAGGACAUGAUGCGC [JL ENG3 3.80 Mod 13] (Eterna round: R96, puzzle: Exclusion NG 3)" subject_of_test="MS2 coat protein" measurement_units=nM result=36.7

Could you now consider this next sequence?
Request: apparent KD of MS2 coat protein lookup needed for CGUCGAAAUGUAGGAUAUCUGCACGUGUAGUGCAGAGAAGGACAUGAGGAUCACCCAUGUAGAUCACGACGAAUUAAUUUAAUU [ENG1/5-C3] (Eterna round: R96, puzzle: Exclusion NG 1) , thanks.
Response: 56.9

---

# System: MS2 coat protein
# test-description: apparent KD of MS2 coat protein; designed switch direction (-1 OFF switch, 1 ON switch): -1; higher = weaker reporter binding
# measurement-context: Eterna round: R95; input ligand: FMN 200 uM
Labels assigned by apparent KD of MS2 coat protein range: c1: < 70 nM; c2: ≥ 70 nM and < 200 nM; c3: ≥ 200 nM

Study these solved cases before continuing.
biosequence="AAGUACCGUCACGAUAGUGAUGGUACAACAAGCAGGUGAACAUGAGGAUCACCCAUGUCCUCAAUUGCUCGUCUUAU [Sensor 3 - 73] (puzzle: Sensor v3, turn-off variant 2)" class_label=c2
biosequence="AGAAGUAGUAACCGAUCCUACAUGAGGAUCACCCAUGUAGCUAGACGUGCACGCGAGGCUCGUCAGACUACCAGAUG [salish99_TOv1_r3_028] (puzzle: Sensor v3, turn-off variant 1)" class_label=c3
biosequence="UUAGGCGUCUUUGCUCGUCUUAUUUGGAGAUGACUGUUAACAUGAGGAUCACCCAUGUGUGUGGGAGCUUUGCAGUU [JR_SV3TOV2_Sub022] (puzzle: Sensor v3, turn-off variant 2)" class_label=c3
biosequence="AAGAAACAUGAGGAUCACCCAUGUCAGGAUAUCUCGAAAAGCAUAGAAAUAUGCGAAGAGAGAAGGGACUAUCC [ChP Ext 10-04-2015 #3] (puzzle: Exclusion 1)" class_label=c1
biosequence="AGCCCUUGUGUCAGGAUAUGCAUCCUUAAAGGACGGCAGAAGGGACAUGAGGAUCACCCAUGUAAAUAGAAAUU [Onatatge] (puzzle: Brourd's mod of Exclusion 4)" class_label=c1
biosequence="GGUACUAACACGAAAGUGUUAGUACUAUAGGUUUGUGUUACAUGAGGAUCACCCAUGUCCUCAUAAGCUCGUCUUGU [JL-sv3-2.21 mat747 mod] (puzzle: Sensor v3, turn-off variant 2)" class_label=c3

Request: Kindly state the category for this sequence: GUGAGCAGACGGAGAUCCAACAUGAGGAUCACCCAUGUCUCAUAAGCUUUUUGCUCAUCUUAUUGUACCUUGGUGCU [Mat - Sensor v3 - turn-off var 1 - JL Mod - D20] (puzzle: Sensor v3, turn-off variant 1)
Response: c3

Request: Which category does the recorded apparent KD of MS2 coat protein put AGAUGGCGAGGAUAUACAUGAGGAUCACCCAUGUGAGAGAUUAGAGUGAGGAAGAAAAGUAGAAGGCGCUGUCA [Mat - Exclusion 3 - Mod of Salish D18] (puzzle: Exclusion 3) in?
Response: c2

Request: Categorize the following entry: UUAUAGAGAGGAUAUAUAAUGUGAAACAUGAGGAUCACCCAUGUAAUAUUAUGGAUGUAAAUAGAAGGCUCAAUUU [Mat - Exclusion 5 - JL mod - D14] (puzzle: Exclusion 5)
Response: c1

---

# Test system: K4 kissing-loop RNA reporter;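 also: bound reporter read as fluorescence of individual clusters on recovered sequencing chips by microscopy, with normalized cluster intensities fitted with a binding model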
# test-description: apparent KD of K4 kissing-loop reporter; higher = weaker reporter binding
# measurement-context: Eterna round: R107; input ligand: tryptophan 2.4 mM
metric-name: apparent KD of K4 kissing-loop reporter
Field note: include the unit after the figure.

Take a look at these entries with their results.
biosequence="CGCGUACAGUGUUCUACGGCCGAGAGUGAUACCAGCCGUAUUUGUGGCCCUUGGCAGCGCAGAUGCAGUGAUGUUGCAUACUUGG [Same State Theophylline A GF 21]" metric_name="apparent KD of K4 kissing-loop reporter" result="85.4 nM"
biosequence="AUAAUAUGAGUGAUGUUCAUGAAACCUGAAGGAGCGGACGAAAGUCCAGGUAGGUCGCAGGACUCCUUCAACAUGGGAGAGGGAG [KL-SSArg-A8 #analogue]" metric_name="apparent KD of K4 kissing-loop reporter" result="150 nM"
biosequence="CUGACGUGCGGUAGGUUCAAGUGCUGGGAAGGAGCGCAGAUGACUGCAGGUAGGUCGCCCAGUGAUGUUGGGCUUUCCACCUACG [Quinbe]" metric_name="apparent KD of K4 kissing-loop reporter" result="186 nM"

Request: // lookup apparent KD of K4 kissing-loop reporter for UCUGUUGUAUAUGAUACCAGCAGUGAGAGAUGAGAAGUAUAGUGAUGUUAUAUGAGAGAAUGCCCUUGGCAGCGUGUGCGUGUGG [SSTheophylB.aC]
Response: 76.9 nM

Request: Value lookup for apparent KD of K4 kissing-loop reporter; key = GGAUAGGACGGAGGAUAUGGGCUAGGCAAGAAUAACUUGUCUAGCAAAUCCAUGAGGAGUGAUGUUCCAGAAGGUUGUCCUAUCG [FmnBX 1 G10+U75]
Response: 75.4 nM

Request: # input sequence: AAAUUUGCUCAUGAUACCAGCCAGUGAUGUUGGUUGGUCCACCGUGUCCGAACAUUAAGCGGCCCUUGGCAGCAUGAUGCGCGUA [Ininveaen] ; wanted: its apparent KD of K4 kissing-loop reporter
Response: 112 nM

Request: Param item = AAGUCAUAUAGAAGGAGCGUGUUUUUUAAUUUAUUUUCAUGAUCGAGUGAUGUUCGAUAUACACAGGUAGGUCGCUGUAUAAUAA [hbob_SS_Arginine_B_2t141] ; retrieve measured apparent KD of K4 kissing-loop reporter.
Response: 112 nM

Request: Field request: apparent KD of K4 kissing-loop reporter | item: AGAGUUAUGAGAGGAUAUGCGGCUAGUACUCAAAGAGUACUAGCAGCAGAGUGAUGUUCUGUGAAAGCAGAAGGUUCAUAACUCA [#06 K4 FMN B Same State]
Response: 641 nM

Request: State the recorded apparent KD of K4 kissing-loop reporter for this entry: AGUUAUGUAUCAGGAUAUUAGUGAUGUUUGUUUAUGUUAGUGAUGUUGAUAUUUGUUUUAUGUAUUUAAGAAGGGAUUGAGAUGU [ccgcmullin]
Response: 46.6 nM

Request: apparent KD of K4 kissing-loop reporter for AGGUUUUGAUUAGGAUAUGCACUGACGAUGAGAAUAUAGUGAUGUUAUAUACUACGAAUUAGUAGAGUAGAAGGGAUUGAGGUUU [SSFMNB.Z] ?
Response: 335 nM

Request: Fill in the blank: the reported apparent KD of K4 kissing-loop reporter of AUGUAUGAAUUAGGAUAUCGUUAGCCUAUCAUAUAUAUGAUAAAUGGAUAUGUCGUAGUGAUGUUACGAGAAGGAGUGUGGAGUA [KL-XFMN-B7] is ____.
Response: 39 nM

Request: Reported apparent KD of K4 kissing-loop reporter, sequence UGUCAUUGGUCGGCCGCCACUUCAUGUAGAGUGAUGUUUUGUAGGACGGAUCGAAAGAUCUGUCGGAGGACCGGGACCGAUGACU [FiskerMod 16 - Jieux - Same State - Tryptophan B] : ____
Response: 1690 nM

---

# Tested on: MS2 coat protein
# test-description: apparent KD of MS2 coat protein; designed switch direction (-1 OFF switch, 1 ON switch): -1; higher = weaker reporter binding
# measurement-context: input ligand: FMN 200 uM
Note: every record was labeled by where its apparent KD of MS2 coat protein sits among label 0 = under 0.04 µM, label 1 = from 0.04 µM up to 0.3 µM, label 2 = 0.3 µM and over

Example results:
biosequence="GCUUGUGUUGAGGAUAUGCGCCGGCUCGCUGGCGCAGAAGGCGGCACAUGAGGAUCACCCAUGUCAGUUCGCGG [salish99_ex6_r004_009] (Eterna round: R97, puzzle: Exclusion 6)" class_label="label 2"
biosequence="GUAAUUAAUGUAGGAUAUGCAAGGCGAACCUAAGCAGAAGGACAUGAGGAUCACCCAUGUAUUGCGGUCUGCGUUCUGAUCGCU [salish99_ExNG1_r4_010] (Eterna round: R96, puzzle: Exclusion NG 1)" class_label="label 0"
biosequence="UACUUCUGAGGAUAUACAUAGAUUUACAUGAGGAUCACCCAUGUUCCUCUAUGUAUAAAUGUAGAAGGCAGAAGAU [Mat - Exclusion 5 - JL Mod - D61] (Eterna round: R97, puzzle: Exclusion 5)" class_label="label 1"

Request: Bin? CUCGUGUGAGGAUAUUCACACCCGUCAAAACAACGGACAAAGAAGAAGGCACAUGAGGAUCACCCAUGUAAAGA [Usenisor] (Eterna round: R97, puzzle: Exclusion 4)
Response: label 1

Request: Looking at GUACUGAAGCUUUGCUUUAAUCGUACAUGAGGAUCACCCAUGUAGGAUAUGGUAGGCUUUGCUUACCAGAAGGACAGAGUGAUC [JL EXNG3 1.24] (Eterna round: R96, puzzle: Exclusion NG 3) , which class would you pick?
Response: label 1

Request: Assign a category based on measured apparent KD of MS2 coat protein for ACAUGUCAUUGAGGAUAUCGCACACAUGAGGAUCACCCAUGUAAACAGAUGCUCAUAAGUGGGUUCGAGAAGGCGAUGUACAUU [Ex NG2 #100] (Eterna round: R96, puzzle: Exclusion NG 2) and give only the class name.
Response: label 2

Request: Quick check: band for AAGCUUUUUGGUGACCUCGACAUGAGGAUCACCCAUGUCGUAUUAGAACUUCGGACGAUGAUCGUGCUCGUCAUAAG [Eternabot (Original) Solution 43] (Eterna round: R97, puzzle: Sensor, turn-off variant 1)
Response: label 2

Request: # classify by apparent KD of MS2 coat protein band: GGAUAUAACGUAGGAUAUCAGAGAAACAGACGAUGAGAAGGACGACAUGAGGAUCACCCAUGUGAUCUAUCAAUAUUAUACAUG [Prohibition 98 - Jieux - Exclusion NG 1] (Eterna round: R96, puzzle: Exclusion NG 1)
Response: label 2

Request: Band of UCUGCCGCUGUGAGGAUAUGCCCAAAUAAAAGCGGGCAGAAGGCACAUGAGGAUCACCCAUGUCCUGCGGUUUU [salish99_bmx4_r4_143] (Eterna round: R97, puzzle: Brourd's mod of Exclusion 4) ?
Response: label 1

Where do these numbers come from? They come from the supplement of paper PMC9170038.
